- assay.text: Inhibition of human chitotriosidase using 4-methyumbelliferyl-beta-B-N,N'-triacetylchitotriose as substrate after 10 mins
Entries annotated with measured IC50
experimental.readout: IC50 (µM)

| structure.smiles.string | experimental.readout | readout.units | number |
| --- | --- | --- | --- |
| Cn1cnc2c1c(=O)n(CCCCn1c(=O)c3c(ncn3C)n(C)c1=O)c(=O)n2C | IC50 | µM | 91 |
| Cn1cnc2c1c(=O)n(CCCCCn1c(=O)c3c(ncn3C)n(C)c1=O)c(=O)n2C | IC50 | µM | 260 |
| Cn1cnc2c1c(=O)n(CCn1c(=O)c3c(ncn3C)n(C)c1=O)c(=O)n2C | IC50 | µM | 110 |
| Cn1cnc2c1c(=O)n(CCCn1c(=O)c3c(ncn3C)n(C)c1=O)c(=O)n2C | IC50 | µM | 8.3 |
